Tested on: S. aureus ATCC 25923
Assay: Interference with biofilm formation assay (safranin method)
Type: cell-based
Settings: Staphylococcus aureus, ATCC25923, 24 h, 100 µM compound, 24 h at 37 °C; read-out: Percentages of Inhibition of Biofilm Formation S. aureus 25923
Reported inhibition at 100 µM values are given for each entry in this list.
measure: inhibition at 100 µM

[[record]]
compound = "CC(=O)/C(=N/Nc1cccc(Cl)c1)C(=O)O [Compound 5c]"
endpoint_value = "41.1%"

[[record]]
compound = "O=C(O)/C(=N\\Nc1ccccc1)C(=O)c1ccccc1 [Compound 5g]"
endpoint_value = "36.8%"

[[record]]
compound = "CC(=O)/C(=N/Nc1ccc(C)cc1)C(=O)O [Compound 5f]"
endpoint_value = "33.8%"

[[record]]
compound = "CC(=O)/C(=N/Nc1ccc(Cl)c(Cl)c1)C(=O)O [Compound 5b]"
endpoint_value = "39.2%"

[[record]]
compound = "CC(=O)/C(=N/Nc1ccc([N+](=O)[O-])cc1)C(=O)O [Compound 5d]"
endpoint_value = "45.3%"

[[record]]
compound = "COc1cc(N/N=C(/C(C)=O)C(=O)O)cc(OC)c1OC [Compound 5e]"
endpoint_value = "28.8%"

[[record]]
compound = "CC(=O)/C(=N/Nc1ccccc1)C(N)=O [Compound 7a]"
endpoint_value = "42.1%"

[[record]]
compound = "CC(=O)/C(=N/Nc1ccccc1)C(=O)O [Compound 5a]"
endpoint_value = "~60%"

[[record]]
compound = "O=C(O)/C(=N\\Nc1ccc(Cl)c(Cl)c1)C(=O)c1ccccc1 [Compound 5h]"
endpoint_value = "55.9%"

[[record]]
compound = "CC(=O)/C(C#N)=N/Nc1ccccc1 [Compound 6a]"
endpoint_value = "45.1%"

